- target.or.system: Dual specificity tyrosine-phosphorylation-regulated kinase 1A (Rattus norvegicus)
- assay.summary: Competitive inhibition of rat recombinant 6xHis-tagged DYRK1A catalytic domain (1 to 502) expressed in Escherichia coli BL21 (DE3) using ATP as substrate by Michaelis-Menten plot analysis
measured.quantity: pKi
One number for each entry, as −log10 of the molar value.

>>> value_reported("Oc1ccc(-c2c[nH]c3ncc(-c4ccc(O)cc4O)cc23)cc1")
8.26
>>> value_reported("Oc1ccc(O)c(-c2cnc3[nH]cc(-c4ccc(O)c(O)c4)c3c2)c1")
7.92
>>> value_reported("Oc1ccc(-c2cnc3[nH]cc(-c4ccc(O)c(O)c4)c3c2)c(O)c1")
8.12
>>> value_reported("Oc1ccc(-c2cnc3[nH]cc(-c4ccc(O)c(O)c4)c3c2)cc1O")
8.00

Okay, now this molecule:
# get_value(readout='pKi', item= Oc1ccc(-c2cnc3[nH]cc(-c4ccc(O)cc4)c3c2)cc1 )
8.64

###

- assay.summary: Cytotoxicity against human KB cells assessed as growth inhibition at 10^-5 M after 72 hrs by resazurin dye-based fluorimetric analysis relative to control
- Format: cell-based
- protocol.conditions: read-out: GI
Can you tell me inhibition at 72 h, 10 µM for the items I'm about to list?
Numbers only, in %.

Past entries and their recorded results:
>>> value_reported("Oc1ccc(-c2cnc3[nH]cc(-c4ccc(O)c(O)c4)c3c2)cc1O")
11
>>> value_reported("Oc1ccc(-c2c[nH]c3ncc(-c4ccc(O)cc4O)cc23)cc1")
83
>>> value_reported("Oc1ccc(-c2cnc3[nH]cc(-c4ccc(O)cc4)c3c2)cc1")
95
>>> value_reported("Oc1ccc(-c2c[nH]c3ncc(-c4ccc(O)c(O)c4)cc23)cc1")
86

Below: the item to evaluate.
For Oc1ccc(-c2cnc3[nH]cc(-c4ccc(O)c(O)c4)c3c2)c(O)c1 , what is its reported inhibition at 72 h, 10 µM?
9

###

Kindly state pIC50 for each of the entries shown.
- target.or.system: UniProt:Q63470
- assay.summary: Inhibition of rat recombinant 6xHis-tagged DYRK1A catalytic domain (1 to 502) expressed in Escherichia coli BL21 (DE3) using N-terminal fluorescein coupled KISGRLSPIMTEQ as substrate after 30 mins by HPLC analysis in presence of 50 uM ATP
Give bare numbers, as −log10 of the molar value.

>>> value_reported("COc1ccccc1-c1cnc2[nH]cc(-c3ccccc3)c2c1")
6.02

Give pIC50 for each of the items listed below.
1. COc1ccc(-c2cnc3[nH]cc(-c4ccc(OC)cc4)c3c2)cc1
2. Oc1ccccc1-c1cnc2[nH]cc(-c3ccccc3)c2c1

5.76
5.44
